Reference source: patent US20250332181A1

Tested on: Klebsiella pneumoniae
experiment-summary: Disk diffusion test on Klebsiella pneumoniae
Type: cell-based
test-conditions: in combination with ceftazidime (second round)
metric: effectiveness of the combination with antibiotic

Below, 5 compounds whose answers are already recorded.
[[record]]
item_smiles = "O=C(O)c1ccc(Cl)c(B(O)O)c1"
measured = "enhanced effectiveness"

[[record]]
item_smiles = "O=C(O)c1ccc(B(O)O)s1"
measured = "enhanced effectiveness"

[[record]]
item_smiles = "O=C(O)c1ccc(F)c(B(O)O)c1"
measured = "enhanced effectiveness"

[[record]]
item_smiles = "O=C(O)c1cccc(B(O)O)c1F"
measured = "enhanced effectiveness"

[[record]]
item_smiles = "O=C(O)c1cc(B(O)O)ccc1Cl"
measured = "enhanced effectiveness"


Next, consider the following compound.
get_value(item= CC1(C)OB(c2ccc(C(=O)O)s2)OC1(C)C , readout=effectiveness of the combination with antibiotic) returns enhanced effectiveness

###

Test system: Acinetobacter baumannii
experiment-summary: Disk diffusion test on Acinetobacter baumannii
Type: cell-based
test-conditions: in combination with ceftazidime
metric: effectiveness of the combination with antibiotic

Worked examples follow.
[[record]]
item_smiles = "O=C(O)c1cccc(B(O)O)c1F"
measured = "enhanced effectiveness"

[[record]]
item_smiles = "O=C(O)c1ccc(B(O)O)s1"
measured = "enhanced effectiveness"

[[record]]
item_smiles = "O=C(O)c1ccc(Cl)c(B(O)O)c1"
measured = "enhanced effectiveness"

[[record]]
item_smiles = "CC1(C)OB(c2ccc(C(=O)O)s2)OC1(C)C"
measured = "enhanced effectiveness"

[[record]]
item_smiles = "O=C(O)c1ccc(F)c(B(O)O)c1"
measured = "enhanced effectiveness"


The reported effectiveness of the combination with antibiotic value, Acinetobacter baumannii, for O=C(O)c1cc(B(O)O)ccc1Cl reads enhanced effectiveness

Recorded effectiveness of the combination with antibiotic for OB(O)c1cc(F)cc(F)c1F on Acinetobacter baumannii was enhanced effectiveness
